Where do the numbers come from? From PubChem BioAssay (NCI).

Test system: SK-MEL-5 melanoma
ASSAY_PROTOCOL: NCI-60 one-dose screen, 48 h
CONDITION: 10 µM unless noted
Experimental: Growth inhibition of the SK-MEL-5 human tumor cell line is measured as a screen for anti-cancer activity. Cells are grown in 96 well plates and exposed to the test compound for 48 hours. Compounds are tested at a single concentration, which is 10^-5 M for most compounds. The reported endpoint is percent growth (GI% or GIPRCNT), where numbers from 0 - 100% represent growth inhibition, and numbers from -100% - 0 represent cell death. For example, a value of 40 represents 60% growth inhibition. […]
About 83,000 compounds went through this panel and 20% of them were active in at least one assay; those are over-represented in the sample as a whole. Calls of active or inactive are those of the source. Rule for the calls: active = growth percent below 10; inactive = the rest.
# output must be one of active, inactive

CCN1C(=O)N(CC)C2SC(N/N=C/c3cccs3)=NC21 (centres undefined) :: active
N/C(=N\c1nc2c(Cl)cccc2s1)C(Cl)(Cl)Cl :: inactive
COc1cc(-c2nc(SCc3ccc(C)cc3)[nH]c(=O)c2C#N)ccc1OCc1ccccc1 :: inactive

I would be grateful if you could indicate the recorded call for `Cc1ccc(NC(=O)c2ccc(CN3CCN(C)CC3)c(C(F)(F)F)c2)cc1Oc1ccc(-c2[nH]nc3ncnc(N)c23)cc1` .
inactive

I would be grateful if you could indicate the recorded call for `C=C(C)[C@@H]1CC[C@]2(C(=O)NCCCN(CCC#N)CCC#N)CC[C@]3(C)[C@H](CC[C@@H]4[C@@]5(C)CCC(=O)C(C)(C)[C@@H]5CC[C@]43C)[C@@H]12` .
inactive

I would be grateful if you could indicate the recorded call for `CCOc1ccc2nc(NC(=O)Nc3ccccc3C)sc2c1` .
inactive

I would be grateful if you could indicate the recorded call for `CCOC(=O)c1c(Nc2ccccc2)nn2c(-c3ccc(Br)cc3)ccnc12` .
inactive

I would be grateful if you could indicate the recorded call for `Cc1ccc(-c2cc3nc(C(Cl)Cl)nc(-c4ccccc4)n3n2)cc1` .
inactive

I would be grateful if you could indicate the recorded call for `CC[C@@](C)(NC(=O)C(C)(C)NC(=O)[C@@H](NC(=O)[C@@H]1CCCN1C(=O)C(C)(C)NC(=O)[C@H](CC(C)C)NC(=O)CNC(=O)C(C)(C)NC(=O)[C@@H](NC(=O)C(C)(C)NC(=O)[C@H](CCC(N)=O)NC(=O)[C@H](C)NC(=O)C(C)(C)NC(=O)[C@H](C)NC(=O)C(C)(C)NC(=O)[C@H](C)NC(=O)C(C)(C)NC(C)=O)C(C)C)C(C)C)C(=O)N[C@@H](CCC(N)=O)C(=O)N[C@@H](CCC(N)=O)C(=O)N[C@H](CO)CC1CCCCC1` .
active

I would be grateful if you could indicate the recorded call for `Oc1ccccc1-c1nnc(SCc2ccc(O)c3ncccc23)n1-c1ccccc1` .
active

I would be grateful if you could indicate the recorded call for `COc1ccc(OC)c([C@H]2c3[nH]c4ccccc4c3C[C@H]3C(=O)N(CCCCCCC(=O)NO)CC(=O)N23)c1` .
inactive
